The entries below come with measured TGI values attached.
Assay: Cytotoxicity against human PC3 cells assessed as reduction in cell viability measured after 72 hrs by MTT assay
Type: functional
Conditions: PC-3, 72 h

[
  {
    "COMPOUND": "SCc1cc2c(cc1Br)OCO2",
    "MEASURED": "> 100 µM"
  }
]

Exercise: Which TGI value is on record for CSc1ccc2ccccc2n1 ?
Key: > 100 µM

Exercise: Entry under review: C[Se](=O)O . Reported TGI?
Key: 8.4 µM

Exercise: Using the record for N#C[Se]Cc1cc2c(cc1Br)OCO2 , report its TGI.
Key: 45.7 µM

Exercise: Would you kindly share the measured TGI for N#C[Se]CN1C(=O)c2ccccc2C1=O ?
Key: 32.1 µM

Exercise: Return reported TGI; argument: N#CSCN1C(=O)c2ccccc2C1=O
Key: > 100 µM

Exercise: // returns reported TGI for input N#C[Se]Cc1c2ccccc2nc2ccccc12
Key: 28.3 µM
